For each of the molecules below, state its Plant response rating, Morningglory.
# Tested on: morning glory (Ipomoea hederacea)
# Test details: Test B preemergence
# Assay type: in vivo
# Experimental parameters: preemergence; Rate 125 g/ha; scale of 0 to 100 where 0 is no effect and 100 is complete control; 13 to 15 days
Answers are plain numbers.

Ask: Dear colleague, I am looking for the recorded Plant response rating, Morningglory of the following molecule: CC1(c2ccn(C3OCN(c4cccc(C(F)(F)F)c4)C3=O)n2)CC1 (centres unmarked) [Compound 62]
Reply: 0

Ask: Dear colleague, I am looking for the recorded Plant response rating, Morningglory of the following molecule: CCC(CC)c1ccn(C2OCN(c3cccc(OC(F)(F)F)c3)C2=O)n1 (centres unmarked) [Compound 68]
Reply: 0

Ask: Dear colleague, I am looking for the recorded Plant response rating, Morningglory of the following molecule: CCCCC(C)c1ccn(C2OCN(c3cccc(C(F)(F)F)c3)C2=O)n1 (centres unmarked) [Compound 98]
Reply: 0

Ask: Dear colleague, I am looking for the recorded Plant response rating, Morningglory of the following molecule: CCC(C)c1ccn(C2CCN(c3ccc(Cl)c(OC)c3)C2=O)n1 (centres unmarked) [Compound 119]
Reply: 50

For the next question, use this molecule.
Ask: Dear colleague, I am looking for the recorded Plant response rating, Morningglory of the following molecule: O=C1C(n2ccc(C3CCCCC3)n2)SCN1c1cccc(C(F)(F)F)c1 (centres unmarked) [Compound 52]
Reply: 0
